molecular target: Bn-VAKGL pentapeptide of filamin A (FLNA) (Homo sapiens, UniProt P21333); experiment: FITC-NLX-based FLNA screening assay (FLNA peptide binding assay); settings: read-out: Percent inhibition of FITC-NLX binding, 1 μM
observable: inhibition at 1 µM (%)
Numbers only, in %.

Below: 5 compounds and their reported inhibition at 1 µM.
| compound | inhibition at 1 µM / % |
| --- | --- |
| CC1CCC(C(C)C)C(OCC(O)CN2CCc3ccccc32)C1 (stereo not drawn) [Compound A0065] | 50.8 |
| CC1CCC(C(C)C)C(OCC(O)CN2CCN(Cc3ccccc3)CC2)C1 (stereo not drawn) [Compound A0072] | 59.4 |
| OC(COc1ccc(Br)c(F)c1)CN1CCN(CCN2CCOCC2)CC1 (stereo not drawn) [Compound A0063] | 38.8 |
| OC(CN1CCc2ccccc2C1)OCc1ccc(Br)c(F)c1 (stereo not drawn) [Compound A0057] | 43.4 |
| COc1ccc(OCC(O)CN2CCN(Cc3ccccc3)CC2)cc1 (stereo not drawn) [Compound A0073] | 59.7 |

// query Please indicate inhibition at 1 µM recorded for COc1ccc(OCC(O)CN2CCc3ccccc32)cc1 (stereo not drawn) [Compound A0069]
// result 46.1

These measurements were taken from patent US20100279997A1.
